# EXPERIMENTAL TARGET: PI3Kα H1047R in T47D cells (Homo sapiens, UniProt P42336, H1047R)
# Construct: endogenous in cells; host or cells: T47D
# Sequence (P42336 whole entry H1047R): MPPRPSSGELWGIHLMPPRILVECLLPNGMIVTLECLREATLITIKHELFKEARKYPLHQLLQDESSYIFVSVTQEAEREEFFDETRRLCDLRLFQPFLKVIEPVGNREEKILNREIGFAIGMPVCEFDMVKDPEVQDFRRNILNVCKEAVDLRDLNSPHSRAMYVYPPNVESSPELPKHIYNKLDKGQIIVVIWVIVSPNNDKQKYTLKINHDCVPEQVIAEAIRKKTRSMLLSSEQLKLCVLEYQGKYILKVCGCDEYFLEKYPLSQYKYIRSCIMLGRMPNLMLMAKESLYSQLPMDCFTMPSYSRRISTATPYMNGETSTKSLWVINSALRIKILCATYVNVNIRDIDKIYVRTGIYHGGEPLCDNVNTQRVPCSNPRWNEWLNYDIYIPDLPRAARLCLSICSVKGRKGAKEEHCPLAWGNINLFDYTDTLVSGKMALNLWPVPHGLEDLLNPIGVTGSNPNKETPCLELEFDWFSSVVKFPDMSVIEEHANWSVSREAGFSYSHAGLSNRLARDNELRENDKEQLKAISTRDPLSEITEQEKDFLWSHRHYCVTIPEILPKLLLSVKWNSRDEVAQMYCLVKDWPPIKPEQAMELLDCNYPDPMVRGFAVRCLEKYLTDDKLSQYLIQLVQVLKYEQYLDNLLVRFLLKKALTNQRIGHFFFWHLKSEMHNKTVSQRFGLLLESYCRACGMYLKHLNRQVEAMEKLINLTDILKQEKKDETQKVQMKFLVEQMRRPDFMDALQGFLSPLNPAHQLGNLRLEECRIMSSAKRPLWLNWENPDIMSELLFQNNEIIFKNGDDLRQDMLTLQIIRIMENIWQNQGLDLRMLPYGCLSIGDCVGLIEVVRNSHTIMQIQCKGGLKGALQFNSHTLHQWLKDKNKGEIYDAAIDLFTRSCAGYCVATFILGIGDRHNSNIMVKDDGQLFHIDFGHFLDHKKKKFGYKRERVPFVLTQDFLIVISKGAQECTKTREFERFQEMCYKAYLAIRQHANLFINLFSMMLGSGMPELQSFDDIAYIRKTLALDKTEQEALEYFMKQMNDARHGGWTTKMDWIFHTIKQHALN
# Sequence (P27986 whole entry partner): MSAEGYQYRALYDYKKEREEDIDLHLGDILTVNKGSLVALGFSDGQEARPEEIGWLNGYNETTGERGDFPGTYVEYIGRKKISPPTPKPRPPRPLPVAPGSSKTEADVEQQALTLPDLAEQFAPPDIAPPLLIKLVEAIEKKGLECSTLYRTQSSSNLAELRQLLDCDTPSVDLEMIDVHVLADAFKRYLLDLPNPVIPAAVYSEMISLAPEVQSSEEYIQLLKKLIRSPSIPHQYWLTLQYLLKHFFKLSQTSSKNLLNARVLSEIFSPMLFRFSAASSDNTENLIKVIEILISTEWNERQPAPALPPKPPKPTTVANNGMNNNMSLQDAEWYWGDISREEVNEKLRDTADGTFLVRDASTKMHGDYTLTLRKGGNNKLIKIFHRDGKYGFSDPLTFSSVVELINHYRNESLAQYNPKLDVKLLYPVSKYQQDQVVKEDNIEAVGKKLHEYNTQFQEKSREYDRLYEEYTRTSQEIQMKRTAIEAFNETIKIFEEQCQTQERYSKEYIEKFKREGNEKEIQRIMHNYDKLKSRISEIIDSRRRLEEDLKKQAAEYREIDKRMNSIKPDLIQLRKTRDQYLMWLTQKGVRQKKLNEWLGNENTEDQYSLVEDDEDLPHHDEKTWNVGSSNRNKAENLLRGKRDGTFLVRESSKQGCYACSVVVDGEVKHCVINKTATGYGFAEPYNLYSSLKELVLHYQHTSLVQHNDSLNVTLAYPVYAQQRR
# PROCEDURE TEXT: PI3Kα cellular assay: T47D pAKT S473 HTRF
# Type: cell-based
# TEST CONDITIONS: T47D (H1047R) versus SKBR3 (WT) cells
MEASURED ATTRIBUTE: T47D pAKT S473 HTRF IC50 (H1047R): T47D (H1047R) selectivity over SKBR3 (WT)

// solved cases for T47D pAKT S473 HTRF IC50 (H1047R): T47D (H1047R) selectivity over SKBR3 (WT) follow
COMPOUND	EXPERIMENTAL TARGET	MEASURED VALUE
Cc1cc(C(C)Nc2ccccc2C(=O)O)c2nc(N3Cc4ccccc4C3)nc(NC3COC3)c2c1 (stereo not shown)	PI3Kα H1047R in T47D cells (Homo sapiens, UniProt P42336, H1047R)	C (C denotes ≤5-fold)
Cc1cc([C@@H](C)Nc2ccccc2S(N)(=O)=O)c2nc(-c3cccnc3)n(C)c(=O)c2c1	PI3Kα H1047R in T47D cells (Homo sapiens, UniProt P42336, H1047R)	A (A denotes >20-fold)
Cc1cc([C@@H](C)Nc2ccccc2C(=O)O)c2cc(N3Cc4ccccc4C3)ncc2c1	PI3Kα H1047R in T47D cells (Homo sapiens, UniProt P42336, H1047R)	A (A denotes >20-fold)
Cc1cc(C(C)Nc2ccccc2C(=O)O)c2cc(N3Cc4ccccc4C3)nc(C#N)c2c1 (stereo not shown)	PI3Kα H1047R in T47D cells (Homo sapiens, UniProt P42336, H1047R)	C (C denotes ≤5-fold)
Cc1cc([C@H](C)Nc2ccccc2C(=O)O)c2nc(N3CCC(C)(C)CC3)nc(N)c2c1	PI3Kα H1047R in T47D cells (Homo sapiens, UniProt P42336, H1047R)	C (C denotes ≤5-fold)
Cc1cc([C@@H](C)Nc2ccccc2C(=O)O)c2[nH]c(N3CCOCC3)nc(=O)c2c1	PI3Kα H1047R in T47D cells (Homo sapiens, UniProt P42336, H1047R)	C (C denotes ≤5-fold)
Cc1cc([C@@H](C)Nc2ccccc2C(=O)O)c2nc(N3Cc4ccccc4C3)ncc2c1	PI3Kα H1047R in T47D cells (Homo sapiens, UniProt P42336, H1047R)	C (C denotes ≤5-fold)
Cc1cc(C(C)Nc2ccccc2C(=O)O)c2nc(N3CCC(C)(C)CC3)nc(NC(=O)CCl)c2c1 (stereo not shown)	PI3Kα H1047R in T47D cells (Homo sapiens, UniProt P42336, H1047R)	C (C denotes ≤5-fold)

The record that follows has no T47D pAKT S473 HTRF IC50 (H1047R): T47D (H1047R) selectivity over SKBR3 (WT) shown yet.
Q: Lab request: please report T47D pAKT S473 HTRF IC50 (H1047R): T47D (H1047R) selectivity over SKBR3 (WT) under test system PI3Kα H1047R in T47D cells (Homo sapiens, UniProt P42336, H1047R) for Cc1cc(C(C)Nc2ccccc2C(=O)O)c2cc(-c3ccnc(C4CC4)c3)nc(C(N)=O)c2c1 (stereo not shown)
Result: A (A denotes >20-fold)
